Recorded values, source patent US10047096B2.

Tested system: human PDGFRβ (Homo sapiens (Human), UniProt P09619)
Sequence (P09619 561-1106): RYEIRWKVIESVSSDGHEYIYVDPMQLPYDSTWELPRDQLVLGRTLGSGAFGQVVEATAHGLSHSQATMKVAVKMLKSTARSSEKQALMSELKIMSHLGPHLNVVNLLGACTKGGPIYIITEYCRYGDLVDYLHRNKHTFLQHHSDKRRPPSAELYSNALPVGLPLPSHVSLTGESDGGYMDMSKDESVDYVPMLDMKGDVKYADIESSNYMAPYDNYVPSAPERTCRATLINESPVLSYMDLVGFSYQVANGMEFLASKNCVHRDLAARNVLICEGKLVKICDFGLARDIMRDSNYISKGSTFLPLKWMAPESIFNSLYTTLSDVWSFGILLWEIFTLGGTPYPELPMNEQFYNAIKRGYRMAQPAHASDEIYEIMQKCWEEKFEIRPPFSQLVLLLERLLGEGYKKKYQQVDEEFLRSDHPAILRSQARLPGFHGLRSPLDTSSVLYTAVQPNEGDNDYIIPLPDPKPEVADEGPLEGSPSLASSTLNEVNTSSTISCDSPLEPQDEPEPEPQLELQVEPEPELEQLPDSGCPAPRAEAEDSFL
Assay method text: PDGFRβ kinase assay (PDGFRβ-HTRF)
Type: biochemical
Condition summary: 10 μM ATP; some mean values from multiple determinations
Outcome measure: IC50 (nM)
Express your answer in nM, writing the number without its unit.

Solved entries:
Ask: Can you share its IC50? I mean this compound: CCCCN(CC)Cc1ccc2c(c1)NC(=O)c1c(Nc3cc(O)c(C)cc3F)ccnc1N2
Reply: 0.962

Ask: Now try Cc1ccc(O)cc1Nc1ccnc2c1C(=O)Nc1cc(CNCC3CCN(C(C)C)C3)ccc1N2 (stereo not drawn) .
Reply: 1.64

Ask: Now try Cc1cc(F)c(Nc2ccnc3c2C(=O)Nc2cc(CN4CCC(O)C(C)(C)C4)ccc2N3)cc1O (racemic) .
Reply: 5.02

Next:
Ask: Can you share its IC50? I mean this compound: Cc1cc(F)c(Nc2ccnc3c2C(=O)Nc2cc(CN(C)CCO)ccc2N3)cc1O
Reply: 0.962
